B1: Formin-binding protein 4, residues 200 to 261; numbered along this chain, Q8N3X1 (parent)
chain: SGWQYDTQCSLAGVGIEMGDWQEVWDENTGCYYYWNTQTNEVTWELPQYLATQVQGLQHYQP

# Variants of: B1
# protocol details: abundance fitness (aPCA) (normalised: wild type 0, dead -1); higher = more abundant; growth selection in yeast, the domain comes from the species named
# condition details: Homo sapiens
Rule: abundance fitness of -0.2 or more gives fulfilled; anything lower gives not fulfilled.

Reference set (4 entries):
{"columns": ["variant identifier", "label class"],
 "data": [
  ["E23C", "not fulfilled"],
  ["W25A", "not fulfilled"],
  ["Y5M", "fulfilled"],
  ["G56V", "not fulfilled"]
]}

Given "T43G" , state whether its abundance fitness is at least -0.2.
not fulfilled
